biological target: Bromodomain-containing protein 4 (Homo sapiens); assay: Displacement of fluorescein-labeled MS574 from recombinant human BRD4 BrD1 after 1 hr by fluorescence anisotropy assay
Active and inactive are the calls of the source. No cut-off for these calls is given here.
The reply should be one of these categories: Yes = active, No = inactive

Please review the following examples before continuing.
{"smiles.repr": "Cc1nc(/N=N/c2ccc(S(=O)(=O)Nc3ccccn3)cc2)c(CO)c(C=O)c1O", "target.system": "Bromodomain-containing protein 4 (Homo sapiens)", "label": "No"}
{"smiles.repr": "O=S(=O)(Nc1ccccn1)c1ccc(/N=N/c2ccc(O)c3c2CCCC3)cc1", "target.system": "Bromodomain-containing protein 4 (Homo sapiens)", "label": "Yes"}
{"smiles.repr": "CC(C)(C)c1cc(/N=N/c2ccc(S(=O)(=O)Nc3ccccn3)cc2)cc(C(C)(C)C)c1O", "target.system": "Bromodomain-containing protein 4 (Homo sapiens)", "label": "No"}
{"smiles.repr": "CC(C)c1cc(/N=N/c2ccc(S(=O)(=O)Nc3ccccn3)cc2)cc(C(C)C)c1O", "target.system": "Bromodomain-containing protein 4 (Homo sapiens)", "label": "No"}
{"smiles.repr": "COc1c(C)cc(/N=N/c2ccc(S(=O)(=O)Nc3ccccn3)cc2)cc1C", "target.system": "Bromodomain-containing protein 4 (Homo sapiens)", "label": "No"}

## Input What classification did Cc1nc(/N=N/c2ccc(S(=O)(=O)Nc3ccccn3)cc2)c(CO)c(CN)c1O end up with in this test?
## Output No

## Input What classification did CC(=O)Nc1c(C)cc(/N=N/c2ccc(S(=O)(=O)Nc3ccccn3)cc2)cc1C end up with in this test?
## Output No

## Input What classification did O=S(=O)(Nc1ccccn1)c1ccc(/N=N/c2ccc(O)c3ccccc23)cc1 end up with in this test?
## Output Yes

## Input What classification did O=S(=O)(Nc1ccccn1)c1ccc(/N=N/c2ccc(O)c3c2NCCC3)cc1 end up with in this test?
## Output Yes

## Input What classification did Cc1nc(/N=N/c2ccc(S(=O)(=O)Nc3ccccn3)cc2)c(CO)c(C)c1O end up with in this test?
## Output No

## Input What classification did CC1(C)Cc2c(/N=N/c3ccc(S(=O)(=O)Nc4ccccn4)cc3)ccc(O)c2O1 end up with in this test?
## Output Yes

###

molecular target: Bromodomain-containing protein 4 (Homo sapiens); test: Displacement of fluorescein-labeled MS574 from recombinant human BRD4 BrD2 after 1 hr by fluorescence anisotropy assay
assay.readout: pKi
Entry type: numeric. Quantity: pKi, the -log10 of concentration in molar units.

For orientation, consider the following solved cases.
{"smiles.repr": "Cc1cc(/N=N/c2ccc(S(=O)(=O)Nc3ccccn3)cc2)cc(C)c1O", "pKi": 5.37}
{"smiles.repr": "O=S(=O)(Nc1ccccn1)c1ccc(/N=N/c2ccc(O)c(C(F)(F)F)c2)cc1", "pKi": 5.17}
{"smiles.repr": "Cc1cc(/N=N/c2ccc(S(=O)(=O)Nc3ccccn3)cc2)ccc1O", "pKi": 5.09}

Consider O=S(=O)(Nc1ccccn1)c1ccc(/N=N/c2ccc(O)c(Cl)c2)cc1 . Its measured pKi is 5.21

Consider Cc1cc(/N=N/c2ccc(S(=O)(=O)Nc3ccccn3)cc2)cc(Br)c1O . Its measured pKi is 5.35
